Tested on: U251 CNS
Assay method text: NCI-60 one-dose screen, 48 h
Run conditions: 10 µM unless noted
The panel holds about 83,000 compounds, 20% with a hit somewhere; the sample as a whole holds those more often. The source made the active and inactive calls. Rule for the calls: active = growth percent below 10; inactive = the rest.
Response enum: True for active, False for inactive

Q: Please share the test call associated with CCn1cc(C(=O)O)c(=O)c2cc(F)c(N3CCN(CC(=O)Nc4ccc(S(=O)(=O)Nc5nccc(C)n5)cc4)C(C)C3)c(F)c21 (centres undefined) .
Result: False

Q: Please share the test call associated with "N#CSc1c[nH]c2cccc(/C=C/C(=O)/C=C(/C=C/c3cccc4[nH]cc(SC#N)c34)OB(F)F)c12" .
Result: True

Q: Please share the test call associated with "COc1ccc(/C=C/C(=O)c2cccc(OCCCCOc3cccc(C(=O)/C=C/c4ccc(OC)c(OC)c4)c3)c2)cc1OC" .
Result: False

Q: Please share the test call associated with "Nc1nc2ccc(-c3nc4ccc5[nH]ncc5c4c4c3CCCC4)cc2s1" .
Result: False

Q: Please share the test call associated with "Cc1[nH]c(C(=O)Nc2ccc(C(=O)N3CCN(c4cc5c(cc4F)c(=O)c(C(=O)O)cn5C4CC4)CC3)cc2OC(C)C)c(Cl)c1Cl" .
Result: False

Q: Please share the test call associated with "CCSc1oc(-c2ccccc2)nc1[P+](c1ccccc1)(c1ccccc1)c1ccccc1" .
Result: False

Q: Please share the test call associated with "N#Cc1nc(-c2ccc(F)cc2)oc1S(=O)(=O)N1CCOCC1" .
Result: False

Q: Please share the test call associated with "CC1=NC2=Nn3c(c4cnn(-c5ccccc5)c4n/c3=N\N)NN2C(c2ccccc2)=C1" .
Result: False

Q: Please share the test call associated with "O=C(Nc1cccc(-c2ccc(Cl)c(C(F)(F)F)c2)c1)C1CCN(Cc2cccc3cccnc23)CC1" .
Result: True

###

Tested on: SK-MEL-2 melanoma
Assay method text: NCI-60 one-dose screen, 48 h (100 = growth as untreated, 0 = no growth, -100 = all killed)
Run conditions: 10 µM unless noted
The panel holds about 83,000 compounds, 20% with a hit somewhere; the sample as a whole holds those more often.
Metric name: growth (%)
Answer with a number only, understood to be in %.

Q: Provide measured growth value, entry: "N#C/C(=C\c1c(-c2ccccc2)[nH]c2ccccc12)C(N)=O"
Result: 111

Q: Provide measured growth value, entry: "Cc1ccc(Nc2cc(N)nc(N)n2)cc1Cl"
Result: 103

Q: Provide measured growth value, entry: CCC(C)N(CCNc1cc(OC)cc2cccnc12)CC(C)C (stereo not given)
Result: 110

Q: Provide measured growth value, entry: "COc1ccc(F)cc1/C=C/C(=O)/C=C(/C=C/c1cc(F)ccc1OC)OB(F)F"
Result: 84.1

Q: Provide measured growth value, entry: "CC1=C2[C@@H](CC1)[C@]1(C)O[C@@](C(C)C)(C[C@H]1OC(=O)[C@H](C)O)[C@H]2OC(=O)/C=C/c1ccccc1"
Result: 80.6

###

Test system: NCI-H226 lung
Assay method text: NCI-60 one-dose screen, 48 h (100 = growth as untreated, 0 = no growth, -100 = all killed)
Run conditions: 10 µM unless noted
Compounds without any hit were thinned out: in the full panel of roughly 83,000, 20% have a hit. The source made the active and inactive calls. The calls were made as follows: active = growth percent below 10; inactive = the rest.
So I've got a bunch of molecules here, and I need their growth values.

Q: Provide measured growth value, entry: CCOC(=O)C(=O)C(C(=O)OCC)c1ccccc1 (centres undefined)
Result: 107% (inactive)

Q: Provide measured growth value, entry: "CCSc1nc2scc(C)c2c(=O)[nH]1"
Result: 99.2% (inactive)

Q: Provide measured growth value, entry: CCOC(=O)C1=C(N)Oc2c(sc3c(F)cccc23)C1c1ccc(O)cc1 (centres undefined)
Result: 55.2% (inactive)

Q: Provide measured growth value, entry: "CNC(=O)c1[nH]cc(-c2ccc(OC)cc2)c1-c1cc(OC)c2c(c1OC)OCO2"
Result: 97.8% (inactive)

Q: Provide measured growth value, entry: "Fc1cccc(Oc2ccc(Nc3ncnc4ccc(OCCCN5CCOCC5)cc34)cc2Cl)c1"
Result: 88.1% (inactive)

Q: Provide measured growth value, entry: CC(C)(C)[Si](C)(C)OC1[C@@H](CNC(=O)NC(=O)NC(N)=O)O[C@@H](n2cnc3c(NC(=O)Nc4ccccc4)ncnc32)[C@H]1O[Si](C)(C)C(C)(C)C (some centres undefined)
Result: 69.4% (inactive)

Q: Provide measured growth value, entry: CCN1C(=O)N(CC)C2C1NN=c1s/c(=C\c3ccccc3F)c(=O)n12 (centres undefined)
Result: 48.5% (inactive)

Q: Provide measured growth value, entry: "Cn1c(=O)c2nc(/C=C/c3ccccc3)c(=O)[nH]c2n(C)c1=S"
Result: 101% (inactive)

Q: Provide measured growth value, entry: "O=C(/C=C(/C=C/c1ccc2[nH]ccc2c1)OB(F)F)/C=C/c1ccc2[nH]ccc2c1"
Result: -59.5% (active)

Q: Provide measured growth value, entry: "O=C(Nc1ccc(Oc2cccc(F)c2)c(Cl)c1)c1cccnc1"
Result: 56.9% (inactive)

Q: Provide measured growth value, entry: "COc1cc(-c2csc(NC(=O)c3ccc(N4CCOCC4)c(C(F)(F)F)c3)n2)cc(OC)c1OC"
Result: 41.6% (inactive)

Q: Provide measured growth value, entry: "Cc1ccc(NC(=O)Cn2cc(CN3CCN(c4ccnc5cc(Cl)ccc45)CC3)nn2)cc1"
Result: 84.9% (inactive)

Q: Provide measured growth value, entry: "O=S(=O)(Nc1cc(F)cc(Cl)c1)c1ccc(-c2cnc(C3CC3)o2)cc1"
Result: 43% (inactive)

Q: Provide measured growth value, entry: Nc1ncnc2c1C(c1ccc(Br)cc1)c1sc3c(F)cccc3c1O2 (centres undefined)
Result: 81.5% (inactive)

Q: Provide measured growth value, entry: "COc1ccc(-c2noc(C(=O)O)c2-c2cc(OC)c(OC)c(OC)c2)cc1"
Result: 54.1% (inactive)

Q: Provide measured growth value, entry: "C#COc1cccc(Nc2c(C#N)cnc3ncc(NC(=O)CCl)cc23)c1"
Result: 57.2% [6.25 µM] (inactive)

Q: Provide measured growth value, entry: "N=C(N)c1ccc(-c2ccc(-c3ccccc3)o2)cc1"
Result: -26.4% (active)

Q: Provide measured growth value, entry: "CN(C)c1ccc(-c2c(C#N)c(N)nn2C(=O)c2ccc(NC(=O)c3ccccn3)cc2)cc1"
Result: 98.2% (inactive)

Q: Provide measured growth value, entry: "O=C(CSc1nc2ccc([N+](=O)[O-])cc2[nH]1)Nc1ccc([N+](=O)[O-])cc1"
Result: 6.55% (active)

Q: Provide measured growth value, entry: "C#CCOC(=O)/C=C/c1cn(-c2ccccc2)nc1-c1ccc(OC)cc1"
Result: 81.6% (inactive)

Q: Provide measured growth value, entry: "COc1cc(OC)c(/C=C/C(=O)c2c(OC)cccc2OC)c(OC)c1"
Result: 47.3% (inactive)

Q: Provide measured growth value, entry: "COc1ccc(Nc2nnc(-c3ccc(OC)c(OC)c3)o2)cc1"
Result: 85.3% (inactive)

Q: Provide measured growth value, entry: "Cc1ccc(Nc2cc(N)nc(N)n2)cc1Cl"
Result: 93.3% (inactive)

Q: Provide measured growth value, entry: "Cc1[nH]c(C(=O)Nc2ccc(C(=O)N3CCN(c4cc5c(cc4F)c(=O)c(C(=O)O)cn5C4CC4)CC3)cc2OC(C)C)c(Cl)c1Cl"
Result: 96.5% (inactive)

Q: Provide measured growth value, entry: "NC(=O)c1cc(I)ccc1NC(=O)/C=C/c1ccccc1"
Result: 56.8% (inactive)

Q: Provide measured growth value, entry: "CCn1c(SCC(=O)N/N=C(\C)c2ccc(Cl)cc2)nc2c1c(=O)n(C)c(=O)n2C"
Result: 99.7% (inactive)

Q: Provide measured growth value, entry: "CN(C)c1ccc(C(=O)OCCCCCCl)cc1"
Result: 99% (inactive)

Q: Provide measured growth value, entry: "Oc1c(I)cc(I)cc1CNCCN(Cc1ccccn1)Cc1ccccn1"
Result: -65.1% (active)

Q: Provide measured growth value, entry: Cc1nc2sc(C(=O)Nc3cccc(Br)c3)c(N)c2cc1C(O)c1ccccc1 (centres undefined)
Result: 61.7% (inactive)

Q: Provide measured growth value, entry: "CC(C)c1ccc(C(=O)Nc2nc3ccc(O)c(CN(C)C)c3s2)cc1"
Result: 97.1% (inactive)

Q: Provide measured growth value, entry: "COCCn1cc(-c2nc(-c3cc4cccnc4[nH]3)cs2)c2cc(OC)ccc21"
Result: 28.8% (inactive)

Q: Provide measured growth value, entry: CC(O)(c1ccccc1)C(c1ccccc1)C1CCCCN1 (centres undefined)
Result: 102% (inactive)

Q: Provide measured growth value, entry: "CC(=O)O[C@@H]1C[C@]2(C(C)C)O[C@@]1(C)[C@@H]1CCC(C)=C1[C@@H]2OC(=O)/C=C/c1ccccc1"
Result: 66.2% (inactive)

Q: Provide measured growth value, entry: "CCOC(=O)c1cc2c(n1C)-c1nc(NC(C)=O)sc1CCC2"
Result: 69.1% (inactive)

Q: Provide measured growth value, entry: CC(=O)O[C@H]1CC2CCC3C(CC[C@@]4(C)C3C[C@H]([N+]3(C)CCCCC3)[C@@H]4OC(C)=O)[C@@]2(C)C[C@@H]1N1CCCCC1 (some centres undefined)
Result: 106% (inactive)

Q: Provide measured growth value, entry: "CCN(CC)S(=O)(=O)c1ccc(S(=O)(=O)N2CCC[C@@H](C(=O)N3CCN(c4nc(C(C)C)no4)CC3)C2)cc1"
Result: 82.1% (inactive)

Q: Provide measured growth value, entry: CCC(C)(C)C(=O)O[C@H]1C[C@@H](C)C=C2C=C[C@H](C)[C@H](CC[C@@H]3CC(SCCN)CC(=O)O3)[C@H]21 (some centres undefined)
Result: 98.3% (inactive)

Q: Provide measured growth value, entry: "COc1ccc2c(c1)c(-c1nc(-c3c[nH]c4ccncc34)cs1)cn2C"
Result: 48.7% (inactive)

Q: Provide measured growth value, entry: Nc1n[nH]c2ccc([C@H]3[C@@H]4C5CCC(C5)[C@@H]4c4c(ccc5[nH]ncc45)N3S(=O)(=O)C3CC3)cc12 (some centres undefined)
Result: -16.9% (active)
